For each record, write down the corresponding IC50.
# Test system: NCI-H838 non-small-cell lung cancer cell line
# Type: cell-based, human
# Description: The MTT test measures the anti-proliferation of the peptide by measuring MTT conversion by live cells into a formazan that cannot be dissolved in water. In this section, three cancer cell lines: human non-small-cell lung cancer cell line, NCI-H838 (ATCC-CRL-5844); human glioblastoma astrocytoma cell line, U251MG (ECACC-09063001) and human breast cancer cell line, MCF-7 (ATCC-HTB-22), were selected for the anti-proliferation study. […] The plate was read at 570 nm using a Synergy HT plate reader.
Residues, ends and D or L forms follow the SMILES beside them.
Numbers only, in µM.

Solved cases (4 shown):
Task item: Could you share which IC50 value was measured for CC[C@H](C)[C@H](NC(=O)[C@H](CCCCN)NC(=O)[C@H](CCCCN)NC(=O)[C@@H](NC(=O)[C@@H](NC(=O)[C@H](CC(=O)O)NC(=O)[C@H](Cc1ccccc1)NC(=O)[C@H](CC(C)C)NC(=O)CN)[C@@H](C)CC)[C@@H](C)CC)C(=O)N[C@@H](C)C(=O)N[C@@H](CCC(=O)O)C(=O)N[C@@H](CO)C(=O)N[C@@H](Cc1ccccc1)C(N)=O [aurein 1.2] (H-GLFDIIKKIAESF-NH2) ?
Reply: 26.9

Task item: Another: CC[C@H](C)[C@H](NC(=O)[C@H](CCCCN)NC(=O)[C@H](CCCCN)NC(=O)[C@@H](NC(=O)[C@@H](NC(=O)[C@H](CCCCN)NC(=O)[C@H](CCCCN)NC(=O)[C@@H](NC(=O)[C@@H](NC(=O)[C@H](CC(=O)O)NC(=O)[C@H](Cc1ccccc1)NC(=O)[C@H](CC(C)C)NC(=O)CN)[C@@H](C)CC)[C@@H](C)CC)[C@@H](C)CC)[C@@H](C)CC)C(=O)N[C@@H](C)C(=O)N[C@@H](CCC(=O)O)C(=O)N[C@@H](CO)C(=O)N[C@@H](Cc1ccccc1)C(N)=O [IK-1] (H-GLFDIIKKIIKKIAESF-NH2)
Reply: 3.5

Task item: Thanks! And CC[C@H](C)[C@H](NC(=O)[C@H](CC(=O)O)NC(=O)[C@H](Cc1ccccc1)NC(=O)[C@H](CC(C)C)NC(=O)CN)C(=O)N[C@H](C(=O)N[C@@H](CCCCN)C(=O)N[C@@H](CCCCN)C(=O)N[C@@H](CC(C)C)C(=O)N[C@@H](C)C(=O)N[C@@H](CCC(=O)O)C(=O)N[C@@H](CO)C(=O)N[C@@H](Cc1ccccc1)C(N)=O)[C@@H](C)CC [KLA-1] (H-GLFDIIKKLAESF-NH2) ?
Reply: 29.4

Task item: Please give the result for CC[C@H](C)[C@H](NC(=O)[C@H](CC(=O)O)NC(=O)[C@H](Cc1ccccc1)NC(=O)[C@H](CC(C)C)NC(=O)CN)C(=O)N[C@H](C(=O)N[C@@H](CCCCN)C(=O)N[C@@H](CCCCN)C(=O)N[C@@H](CC(C)C)C(=O)N[C@@H](C)C(=O)N[C@@H](CCCCN)C(=O)N[C@@H](CC(C)C)C(=O)N[C@@H](C)C(=O)N[C@@H](CCC(=O)O)C(=O)N[C@@H](CO)C(=O)N[C@@H](Cc1ccccc1)C(N)=O)[C@@H](C)CC [KLA-2] (H-GLFDIIKKLAKLAESF-NH2) too.
Reply: 4.6

Proceed to the following item.
Task item: For the molecule shown here, CC[C@H](C)[C@H](NC(=O)[C@H](CCCCN)NC(=O)[C@H](CCCCN)NC(=O)[C@@H](NC(=O)[C@@H](NC(=O)[C@H](CCCCN)NC(=O)[C@H](CCCCN)NC(=O)[C@@H](NC(=O)[C@@H](NC(=O)[C@H](CCCCN)NC(=O)[C@H](CCCCN)NC(=O)[C@@H](NC(=O)[C@@H](NC(=O)[C@H](CC(=O)O)NC(=O)[C@H](Cc1ccccc1)NC(=O)[C@H](CC(C)C)NC(=O)CN)[C@@H](C)CC)[C@@H](C)CC)[C@@H](C)CC)[C@@H](C)CC)[C@@H](C)CC)[C@@H](C)CC)C(N)=O [IK-3] (H-GLFDIIKKIIKKIIKKI-NH2) , give the reported IC50.
Reply: 2.99
